Target: GlcNAc(b1-3)Gal(b1-4)GlcNAc
Assay: glycan array binding signal (z-score within array); higher = stronger binding
Conditions: glycan notation: IUPAC condensed, linker removed
The sample as a whole holds a higher share of the strongest signals than the screen did.
experimental-readout: glycan array binding signal (z-score)
Write no unit; give the number alone.

Entry CBM32-5 (Clostridium perfringens) (protein) MGSSHHHHHHSSGLVPRGSHMASALPQGNMKATATSEHPDVGNEGLAKFAIDGKENTIWHTKYNPVEELPQSITLELGGSYEINKFTYLPRSGAKNGNITKYELHVSEDGNNFRKISEGNWDDSGSLKTLKFNSTKATHVKLVALEGVGGFASAAELNVFA has what glycan array binding signal (z-score)?
-0.249
